Source listed as patent US4556715A.

System: serum and liver lipid levels in normal rats
experiment notes: Effects on relative liver weight, serum and liver lipid levels in normal rats (100 mg/kg, 7 days)
Format: in vivo, Male Wistar strain rats
condition notes: Table 1; 100 mg/kg p.o. 7 days; fasted overnight; mean ± S.E. (n = 6)
Method: (1) Effects on relative liver weight, serum and liver lipid levels in normal rats Male Wistar strain rats, weighing 180-210 g were orally administered the present compounds (X=Cl, n1 =2, 3, 4 and n2 =1) and 4-(4-chlorobenzyloxy)benzyl nicotinate (KCD-232), being X=Cl, n1 =1, n2 =1, respectively, which were suspended in 0.5% carboxymethyl cellulose (CMC) solution once a day at a dose of 100 mg/kg b.w. for 7 days. The last administration was occured in rats fasted overnight. […]
parameter measured: Liver lipid levels TG (mg/g liver)
Give bare numbers, in mg/g liver.

Worked cases, Liver lipid levels TG given:
O=C(OCc1ccc(OCCc2ccc(Cl)cc2)cc1)c1cccnc1: 11.49
O=C(OCc1ccc(OCc2ccc(Cl)cc2)cc1)c1cccnc1 [KCD-232, 4-(4-chlorobenzyloxy)benzyl nicotinate, reference compound]: 21.45
O=C(OCc1ccc(OCCCc2ccc(Cl)cc2)cc1)c1cccnc1: 5.95

// `O=C(OCc1ccc(OCCCCc2ccc(Cl)cc2)cc1)c1cccnc1` : Liver lipid levels TG value = 5.06
